Target: SRC (human) (UniProt P12931)
Sequence (P12931 whole entry, looked up): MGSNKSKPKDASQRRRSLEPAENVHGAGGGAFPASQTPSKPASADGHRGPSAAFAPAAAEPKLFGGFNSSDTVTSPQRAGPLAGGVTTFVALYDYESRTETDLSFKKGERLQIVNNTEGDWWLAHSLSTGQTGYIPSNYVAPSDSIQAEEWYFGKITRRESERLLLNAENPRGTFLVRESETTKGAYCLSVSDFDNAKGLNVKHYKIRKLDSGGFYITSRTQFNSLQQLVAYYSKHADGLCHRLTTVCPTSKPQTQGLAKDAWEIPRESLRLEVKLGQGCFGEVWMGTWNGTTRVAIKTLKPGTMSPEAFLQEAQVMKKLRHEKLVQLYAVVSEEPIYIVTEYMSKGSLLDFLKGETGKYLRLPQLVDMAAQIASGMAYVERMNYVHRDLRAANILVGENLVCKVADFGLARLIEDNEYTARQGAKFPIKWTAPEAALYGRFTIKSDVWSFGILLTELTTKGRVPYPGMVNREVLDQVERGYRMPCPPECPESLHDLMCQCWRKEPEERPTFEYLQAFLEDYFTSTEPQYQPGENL
Assay: radiometric filter-binding kinase assay
Details: compound 10.0 µM
measured.attribute: residual activity (%)

> print(dat)
                                    molecule  measured.attribute  result.value
 1  NC(=O)c1cc2c(-c3cccc(-c4ccccc4)c3)cnc(N)c2s1   residual activity           108
 2  O=C(N[C@@H](COc1ccc2[nH]c(=O)[nH]c2c1)c1ccccc1)c1cccn(Cc2ccc(F)c(F)c2)c1=O   residual activity            75
 3  NCC(=O)Nc1ccc(-n2nc(C(F)(F)F)cc2-c2ccc3c(ccc4ccccc43)c2)cc1   residual activity           135
 4  CC(C)C[C@H](NC(=O)CNC(=O)c1cc(Cl)ccc1Cl)B1OC(=O)CC(CC(=O)O)(C(=O)O)O1 (some centres not stated)   residual activity            86
 5  C[C@H]1CCCC(=O)CCC/C=C/c2cc(O)cc(O)c2C(=O)O1   residual activity            34
 6  Cc1ccc(-c2ccc3c(ccc4sc5c(c43)NC[C@@H](C)NC5=O)n2)cn1   residual activity           100
 7  O=c1c(O)c(-c2ccc(O)c(O)c2)oc2cc(O)c(O)c(O)c12   residual activity            25
 8  NC1(c2ccc(-c3nc4ccn5c(=O)[nH]nc5c4cc3-c3ccccc3)cc2)CCC1   residual activity           105
 9  NS(=O)(=O)OC[C@@H]1C[C@@H](n2ccc3c(N[C@H]4CCc5ccccc54)ncnc32)C[C@@H]1O   residual activity           113
10  O=C(Nc1cccnc1)c1cc(-c2ccnc(F)c2)ccc1OCc1ccccc1   residual activity           160
11  COc1cc2ncn(-c3cc(OCc4ccccc4S(C)(=O)=O)c(C#N)s3)c2cc1OC   residual activity            64
12  Nc1cccc2c1CN(C1CCC(=O)NC1=O)C2=O (configuration not stated)   residual activity           114
13          NC(=O)c1c(NC(=O)C2CC2)sc2c1CCCC2   residual activity            87
14  O=C(O)c1cc(N=Nc2ccc(S(=O)(=O)Nc3ccccn3)cc2)ccc1O   residual activity            83
15  CCc1cncnc1N1CCN(Cc2nc3cc(C(F)(F)F)ccc3[nH]2)CC1   residual activity            92
16  N#Cc1c(O)c2c(-c3ccc(-c4ccccc4O)cc3)csc2[nH]c1=O   residual activity            44
17  CC(C)(C#N)c1ccc(N2C(=O)OCc3cnc4ccc(-c5cnc6ccccc6c5)cc4c32)cc1   residual activity           130
18  NC(=O)c1ccc(-c2ccc(Oc3cncc4sc(-c5nn[nH]n5)cc34)cc2)cc1   residual activity            92
19  O=C1Nc2nc(-c3c(O)cccc3OCC3CC3)cc(C3CCCNC3)c2CO1 (configuration not stated)   residual activity            83
20                  Cc1ccc(=O)n(-c2ccccc2)c1   residual activity           102
21                           CCCC(CCC)C(=O)O   residual activity            87
22  FC(F)(F)c1ccc(-c2ccc(Oc3cncc4sc(-c5nn[nH]n5)cc34)cc2)cc1   residual activity            95
23  c1ccc2c(-c3cnn4cc(-c5ccc(N6CCNCC6)cc5)cnc34)ccnc2c1   residual activity            16
24  O=C(NOC[C@H](O)CO)c1ccc(F)c(F)c1Nc1ccc(I)cc1Cl   residual activity            91
25  Cc1ccc(Sc2cnc(Nc3cccc(Br)n3)s2)cc1C(=O)N1CCN(C(=O)CN)CC1   residual activity             2
26           Cn1nc(Nc2ccc(F)cc2)c2c(N)ncnc21   residual activity            63
27   Cc1nc(-c2ccc(OCC(C)C)c(C#N)c2)sc1C(=O)O   residual activity            78
28        Oc1ccc2ccccc2c1SSc1c(O)ccc2ccccc12   residual activity            89
29  O=C(O)c1ccc(-c2c[nH]c3ncc(-c4ccccc4)cc23)cc1C1CCCC1   residual activity            44
30  O=S(=O)(c1ccc(F)c2nonc12)N1CCN(c2ncc(C(F)(F)F)cc2Cl)CC1   residual activity           111
31  COc1ccc2c(c1)c1c3c(c4c5ccccc5n(C)c4c1n2CC(O)CN(C)C)C(=O)NC3=O (configuration not stated)   residual activity            63
32  N#Cc1c(C2CCNCC2)cc(-c2c(O)cccc2OCC2CC2)nc1N   residual activity            68
33  COc1cc(C(=O)N2CCOCC2)c(F)cc1Nc1ncc(C(F)(F)F)c(NC2CC2)n1   residual activity            81
34  O=C(NOCC(O)CO)c1ccc(F)c(F)c1Nc1ccc(I)cc1Cl (configuration not stated)   residual activity            72
35  NC(=O)c1cc(-c2ccnc(NC3CCCCC3)c2)nc(N2CCNCC2)c1   residual activity            66
36  Cc1ccc2c(c1)C(=O)[C@@]1(O)CCN(c3ccccc3)C1=N2   residual activity            80
37  CCNc1nc(Nc2cc(F)c(C(=O)N3CCOCC3)cc2OC)ncc1C(F)(F)F   residual activity            83
38            Oc1ccc(/C=C/c2cc(O)cc(O)c2)cc1   residual activity            81
39  O=C(Nc1ccccc1-c1cn2c(CN3CCNCC3)csc2n1)c1cnc2ccccc2n1   residual activity           121
40       O=C1NC(=S)N[C@@H]1Cc1c[nH]c2ccccc12   residual activity            99
41    CCn1c(-c2nonc2N)nc2cncc(CNC3CCNCC3)c21   residual activity           102
42  NC(=O)Nc1ccc2c(c1)/C(=C/c1cc(-c3cccnc3)c[nH]1)C(=O)N2   residual activity             1
